Kindly state growth for each of the entries shown.
test system: SNB-19 CNS; test: NCI-60 one-dose screen, 48 h (100 = growth as untreated, 0 = no growth, -100 = all killed); details: 10 µM unless noted
Compounds without any hit were thinned out: in the full panel of roughly 83,000, 20% have a hit.
Numbers only, in %.

Solved entries (count: 10):
1. COc1cc(C(=O)/C=C/c2c(C(F)(F)F)nc3sccn23)cc(OC)c1OC ... 20.7
2. N=c1sc(Cc2ccc(Cl)cc2)cn1CC(=O)c1ccc(F)cc1 ... 88
3. CC1(c2ccccc2)NC(=O)N(NC(=O)CSc2nc(-c3cccs3)nc3ccccc23)C1=O (stereo unspecified) ... 92.2
4. Cc1nn(-c2ccccc2)c(Cl)c1/C=C(/NC(=O)c1ccccc1)c1nc2ccccc2[nH]1 ... 101
5. O=C(O)c1ccc2c(c1)CCC2 ... 103
6. O=C(Nc1cccc2c(O)c(N=Nc3ccc(S(=O)(=O)Nc4nccs4)cc3)cc(N=Nc3ccc(S(=O)(=O)Nc4nccs4)cc3)c12)C(Cl)Cl ... 73.6
7. O=C(CSc1nnc(-c2ccc(NC(=O)c3cccnc3)cc2)o1)N[C@@H](Cc1ccc(O)cc1)C(=O)O ... 96.7
8. N/C(=N\c1nc2ccccc2s1)NC(=O)Nc1cccc(Cl)c1 ... 42.2
9. COC(=O)[C@]12CC[C@@H](C)[C@H](C)[C@@H]1C1=CC[C@@H]3[C@@]4(C)C(C=O)=C[C@@](C)(CO)[C@@H]4[C@H](O)C[C@@]3(C)[C@]1(C)CC2 ... 24.4
10. CC(C)(C)CC(C)(C)Nc1c(-c2ccncc2)nc2cnccn12 ... 97.3

Turning now to a further compound:
Prompt: Endpoint output: growth of CC1=C([Se]CC(OC(=O)[C@@H](CO)NC(=O)OC(C)(C)C)C(=O)NC(C)(C)C)C(=O)c2ccccc2C1=O (stereo partly specified) . Value?
Response: -100

* * *

system: HS 578T breast; experiment: NCI-60 one-dose screen, 48 h (100 = growth as untreated, 0 = no growth, -100 = all killed); conditions: 10 µM unless noted
About 83,000 compounds went through this panel and 20% of them were active in at least one assay; those are over-represented in the sample as a whole.
Please respond with reported growth for every item in the list.
Numbers only, in %.

Below is a list of molecules. For each, state its recorded growth.
1. Cc1cc(NCc2cc(Nc3ccnc4cc(Cl)ccc34)ccc2F)nc(N2CCOCC2)n1
2. Cc1ccc2nc(C)c(-c3nnc(SCc4ccc(C#N)cc4)o3)n2c1
3. CCOC(=O)c1csc(NC(=O)COc2cccc(/C=C3\Oc4cc(OC)ccc4C3=O)c2)n1
4. Cc1cc(=O)oc2c1ccc1oc(C#N)c(C)c12
5. N#Cc1c(N)nc2c(C#N)c(NC(=O)c3ccccc3)nn2c1-c1ccccc1

Response:
1. 16.5
2. 93.2
3. 91.3
4. 91.2
5. 94.7

Quick request: growth for each listed item, please.
1. COc1cc2c(cc1-c1c(C)noc1C)ncc1nc(C3CCC(F)(F)CC3)n(C3CCC(OC(F)F)CC3)c12 (centres undefined)
2. CC1O[C@@H](OC2[C@H](OC(=O)/C=C/c3ccc(O)c(O)c3)C(COC3O[C@H](C)C(O)C(O)[C@@H]3O)O[C@@H](OCCc3ccc(O)c(O)c3)[C@H]2O)[C@@H](O)C(O)[C@H]1O (some centres undefined)
3. Cc1nn(-c2ccccc2)c(Oc2ccc(Cl)cc2)c1/C=N\N=c1/sc2ccccc2n1C
4. CCCCCCCCCCCCCCCCCCOc1ccccc1CC(=O)OCCC[N+](C)(C)C

Response:
1: 61.4; 2: 108; 3: 78.8; 4: 67.2
